Value source: PubChem BioAssay (NCI)

- Test system: M14 melanoma
- experiment_notes: NCI-60 one-dose screen, 48 h
- test_context: 10 µM unless noted
- Method: Growth inhibition of the M14 human tumor cell line is measured as a screen for anti-cancer activity. Cells are grown in 96 well plates and exposed to the test compound for 48 hours. Compounds are tested at a single concentration, which is 10^-5 M for most compounds. The reported endpoint is percent growth (GI% or GIPRCNT), where numbers from 0 - 100% represent growth inhibition, and numbers from -100% - 0 represent cell death. For example, a value of 40 represents 60% growth inhibition. […]
This is part of a sample that, as a whole, favours compounds with a hit. Of some 83,000 tested, about 20% had one in any assay. Activity calls are given as the source filed them. Rule for the calls: active = growth percent below 10; inactive = the rest.
Log the outcome using a class from t = active, f = inactive

Please review the following examples before continuing.
>  <smiles_notation>
CONC1=Nc2cc(NC(N)=NCc3ccccc3)c(N(C)C3CCCCC3)cc2OC1

>  <category>
f

$$$$
>  <smiles_notation>
COc1ccc(-c2ccc(-c3ccc(C(=N)N)cn3)o2)cc1Cl

>  <category>
f

$$$$

Could you now look at the following compound, please?
Query string: Called result for Cc1ccc(C(=O)Nc2ccc(CN3CCN(C)CC3)c(C(F)(F)F)c2)cc1C#Cc1cnc(N)cc1C#N
Result string: t

###

Quick list: growth per entry.
- Test system: EKVX NSCLC
- experiment_notes: NCI-60 one-dose screen, 48 h (100 = growth as untreated, 0 = no growth, -100 = all killed)
- test_context: 10 µM unless noted
Compounds without any hit were thinned out: in the full panel of roughly 83,000, 20% have a hit.
// units = %; emit number, no label

Answered examples (5):
>  <smiles_notation>
COc1ccc(CCNC(=O)COc2cc3c(Nc4ccc(F)c(Cl)c4)ncnc3cc2OC)cc1OC

>  <reported_property>
growth

>  <result_unit>
%

>  <numeric_value>
78.2

$$$$
>  <smiles_notation>
Cc1c(C(=O)OCCCCOC(=O)c2c(C)n(C)c3scc[n+]23)[n+]2ccsc2n1C

>  <reported_property>
growth

>  <result_unit>
%

>  <numeric_value>
95.6

$$$$
>  <smiles_notation>
Cn1cc(C2=C(c3cccc4ccccc34)C(=O)NC2=O)c2cc(Br)ccc21

>  <reported_property>
growth

>  <result_unit>
%

>  <numeric_value>
88.5

$$$$
>  <smiles_notation>
COc1ccc(-c2cc3cnc4ccccc4c3oc2=O)cc1

>  <reported_property>
growth

>  <result_unit>
%

>  <numeric_value>
101

$$$$
>  <smiles_notation>
Cc1ccc(-c2nc(C#N)c(S(=O)(=O)N(C)C)o2)cc1

>  <reported_property>
growth

>  <result_unit>
%

>  <numeric_value>
106

$$$$

Query string: Consider the compound CC(=O)c1nn(-c2ccccc2)/c(=N/N=Cc2cn(-c3ccccc3)nc2-c2cc3ccccc3oc2=O)s1 . State its measured growth.
Result string: 97.2

Query string: // Input: Cc1n(Cc2ccc3ccccc3c2)c(Cl)c(Cl)[n+]1Cc1ccc2ccccc2c1 . Output its growth only.
Result string: 51.1

Query string: Annotate the compound CN1CCN(C(=O)OCc2nc3c(N4CCOCC4)nc(Cl)nc3n2C)CC1 with its measured growth.
Result string: -43.6

###

- Tested on: MALME-3M melanoma
- experiment_notes: NCI-60 one-dose screen, 48 h (100 = growth as untreated, 0 = no growth, -100 = all killed)
- test_context: 10 µM unless noted
About 83,000 compounds went through this panel and 20% of them were active in at least one assay; those are over-represented in the sample as a whole.
reported_property: growth (%)
Output spec: scalar in %, unitless text.

Record excerpt, results attached:
>  <compound>
CC(=O)c1nn(-c2ccccc2)/c(=N/N=Cc2cn(-c3ccccc3)nc2-c2cc3ccccc3oc2=O)s1

>  <measured_target>
MALME-3M melanoma

>  <result_unit>
%

>  <growth>
104

$$$$
>  <compound>
Fc1ccccc1-c1cnn2cc(-c3ccccc3)cnc12

>  <measured_target>
MALME-3M melanoma

>  <result_unit>
%

>  <growth>
109

$$$$
>  <compound>
BrC1=C(Br)C(Br)(Br)C(Br)=C1Br

>  <measured_target>
MALME-3M melanoma

>  <result_unit>
%

>  <growth>
106

$$$$
>  <compound>
COc1ccc(Oc2nc(Nc3ccc(N4CCOCC4)cc3)ncc2NC(=O)c2cc(OC)cc(OC)c2)cc1

>  <measured_target>
MALME-3M melanoma

>  <result_unit>
%

>  <growth>
108

$$$$
>  <compound>
Cc1cnc(C(=O)NNc2nc3sc4c(c3c(=O)[nH]2)C(C)CCC4)cn1 (stereo not drawn)

>  <measured_target>
MALME-3M melanoma

>  <result_unit>
%

>  <growth>
15.9

$$$$

Query string: Report growth for Brc1ccc(/C=C(/C2=NCCN2)n2ccc3ccccc32)cc1
Result string: 75.4

Query string: Return growth (reported value) for this compound: N=C1/C(=C2\NC3C=CC=CC3S2)C(c2ccc(Cl)cc2)C2C(=O)N(c3ccccc3)C(=S)N12 (stereo not drawn)
Result string: 100

Query string: Specify measured growth for S=c1nc(CS)[nH]c2ccccc12 .
Result string: 86.6

Query string: Quick one: give measured growth for CC(=O)c1c(C)nc(SCC(=O)Nc2ccc(Cl)cc2)n1-c1ccc(Cl)cc1
Result string: 90.8

Query string: Kindly indicate its recorded growth. Item: CN(C)CCCn1c2nc(=O)[nH]c(=O)c-2nc2cc(Cl)c(Cl)cc21
Result string: 106

Query string: // Input: C/C=C(\C)C(=O)N[C@H]1CC[C@]2(C)C3CC[C@@]4(C)C(CC[C@@H]4C(C)N(C)C)C3CCC2[C@H]1OC(C)=O (stereo partly drawn) . Output its growth only.
Result string: -68.6

Query string: // Input: O=C(Nc1ccc2ncsc2c1)c1csc(Nc2ccc3[nH]ncc3c2)n1 . Output its growth only.
Result string: 57.1

Query string: Note growth for the compound shown: Cc1cc(N2CCCCC2)nc(NCc2cc(Nc3ccnc4cc(Cl)ccc34)ccc2F)n1
Result string: -75

Query string: Please give the documented growth of CN1Cn2c(ccc2C(F)(F)F)C(=O)CS1(=O)=O
Result string: 90.2

Query string: Hello, please tell me recorded growth for this one: O=C(CCN1CCOCC1)Nc1cccc(-n2cc(-c3ccncc3)c(-c3ccc(Cl)c(O)c3)n2)c1
Result string: 66.3

Query string: Given the compound CCCc1cc(C(N)=S)ccn1 , write its reported growth.
Result string: 93.7

Query string: Answer with the recorded growth of O=C(Nc1ccc2ccccc2c1)c1cc2ccccc2cc1O only.
Result string: 58.5

###

In this section we review reported growth values for a set of compounds.
- Tested on: CCRF-CEM leukemia
- experiment_notes: NCI-60 one-dose screen, 48 h (100 = growth as untreated, 0 = no growth, -100 = all killed)
- test_context: 10 µM unless noted
- Description: Growth inhibition of the CCRF-CEM human tumor cell line is measured as a screen for anti-cancer activity. Cells are grown in 96 well plates and exposed to the test compound for 48 hours. Compounds are tested at a single concentration, which is 10^-5 M for most compounds. The reported endpoint is percent growth (GI% or GIPRCNT), where numbers from 0 - 100% represent growth inhibition, and numbers from -100% - 0 represent cell death. For example, a value of 40 represents 60% growth inhibition. […]
Compounds without any hit were thinned out: in the full panel of roughly 83,000, 20% have a hit. Active and inactive are the calls of the source. How the source made its calls: active means growth percent below 10; inactive means the rest.

These solved cases illustrate the format of a correct answer.
>  <compound>
O=C1/C(=C/c2ccc(F)c(F)c2)CN(C(=O)C(Cl)Cl)C/C1=C\c1ccc(F)c(F)c1

>  <measured_target>
CCRF-CEM leukemia

>  <reported_property>
growth

>  <result>
-3.13% (active)

$$$$
>  <compound>
O=C1c2cc3c(cc2-c2c1c1ccc(Cl)cc1c(=O)n2CCCn1ccnc1)OCO3

>  <measured_target>
CCRF-CEM leukemia

>  <reported_property>
growth

>  <result>
3.44% (active)

$$$$
>  <compound>
COc1cc(F)c(/C=C/c2cc(/C=C/c3cc(OC)c(OC)cc3F)n(-c3cc(F)cc(F)c3)n2)cc1OC

>  <measured_target>
CCRF-CEM leukemia

>  <reported_property>
growth

>  <result>
51.9% (inactive)

$$$$
>  <compound>
Cc1ccc(S(=O)(=O)OC[C@@]2(C)CC[C@]3(C)CC[C@]4(C)C(=C3C2)C=C[C@@H]2[C@@]3(C)CCCNC(C)(C)[C@@H]3CC[C@]24C)cc1

>  <measured_target>
CCRF-CEM leukemia

>  <reported_property>
growth

>  <result>
0.849% (active)

$$$$
>  <compound>
Cc1ccc2nc3ccccc3c(NCc3ccc(Cl)cc3)c2c1

>  <measured_target>
CCRF-CEM leukemia

>  <reported_property>
growth

>  <result>
18.2% (inactive)

$$$$

Query string: Name the recorded growth of C[C@]12CCc3c(ccc4cc(O)ccc34)[C@@H]1C[C@H](O)[C@@H]2O , assay system CCRF-CEM leukemia.
Result string: 84.7% (inactive)

Query string: State growth (CCRF-CEM leukemia) of O=C(CN1C(=O)S/C(=C\C(Cl)=C\c2ccccc2)C1=O)NCCCn1ccnc1 .
Result string: 5.11% (active)

Query string: Give growth for this entry on CCRF-CEM leukemia: COc1ccc(-c2ccc(-c3ccc(C(=N)N)cn3)o2)cc1Cl
Result string: -4.6% (active)

Query string: Return reported growth for target or system CCRF-CEM leukemia, item C#CCOCC1CN(C)C(=O)O1 (stereo not drawn) .
Result string: 98.9% (inactive)

Query string: Given CN(C)C(=O)c1cc2cnc(Nc3ccc(-c4csc5c(=S)cc(N6CCOCC6)oc45)cc3)nc2n1C1CCCC1 , report its growth on CCRF-CEM leukemia.
Result string: 1.8% (active)

Query string: Print CCRF-CEM leukemia growth for CC(=O)N1N=C(c2ccc(F)cc2)CC1c1sc(N(C)Cc2ccccc2)nc1Cl (stereo not drawn) .
Result string: 96.4% (inactive)
